# systemName: Porcine Ventricle myofibrils (left ventricle of Yucatan minipigs) (Sus scrofa, UniProt P79293)
# Construct: Myofibrils from porcine cardiac muscle was isolated from the left ventricle of Yucatan minipigs; tissue Exemplar Genetics; host or cells: left ventricle of Yucatan minipigs
# Sequence (P79293 whole entry): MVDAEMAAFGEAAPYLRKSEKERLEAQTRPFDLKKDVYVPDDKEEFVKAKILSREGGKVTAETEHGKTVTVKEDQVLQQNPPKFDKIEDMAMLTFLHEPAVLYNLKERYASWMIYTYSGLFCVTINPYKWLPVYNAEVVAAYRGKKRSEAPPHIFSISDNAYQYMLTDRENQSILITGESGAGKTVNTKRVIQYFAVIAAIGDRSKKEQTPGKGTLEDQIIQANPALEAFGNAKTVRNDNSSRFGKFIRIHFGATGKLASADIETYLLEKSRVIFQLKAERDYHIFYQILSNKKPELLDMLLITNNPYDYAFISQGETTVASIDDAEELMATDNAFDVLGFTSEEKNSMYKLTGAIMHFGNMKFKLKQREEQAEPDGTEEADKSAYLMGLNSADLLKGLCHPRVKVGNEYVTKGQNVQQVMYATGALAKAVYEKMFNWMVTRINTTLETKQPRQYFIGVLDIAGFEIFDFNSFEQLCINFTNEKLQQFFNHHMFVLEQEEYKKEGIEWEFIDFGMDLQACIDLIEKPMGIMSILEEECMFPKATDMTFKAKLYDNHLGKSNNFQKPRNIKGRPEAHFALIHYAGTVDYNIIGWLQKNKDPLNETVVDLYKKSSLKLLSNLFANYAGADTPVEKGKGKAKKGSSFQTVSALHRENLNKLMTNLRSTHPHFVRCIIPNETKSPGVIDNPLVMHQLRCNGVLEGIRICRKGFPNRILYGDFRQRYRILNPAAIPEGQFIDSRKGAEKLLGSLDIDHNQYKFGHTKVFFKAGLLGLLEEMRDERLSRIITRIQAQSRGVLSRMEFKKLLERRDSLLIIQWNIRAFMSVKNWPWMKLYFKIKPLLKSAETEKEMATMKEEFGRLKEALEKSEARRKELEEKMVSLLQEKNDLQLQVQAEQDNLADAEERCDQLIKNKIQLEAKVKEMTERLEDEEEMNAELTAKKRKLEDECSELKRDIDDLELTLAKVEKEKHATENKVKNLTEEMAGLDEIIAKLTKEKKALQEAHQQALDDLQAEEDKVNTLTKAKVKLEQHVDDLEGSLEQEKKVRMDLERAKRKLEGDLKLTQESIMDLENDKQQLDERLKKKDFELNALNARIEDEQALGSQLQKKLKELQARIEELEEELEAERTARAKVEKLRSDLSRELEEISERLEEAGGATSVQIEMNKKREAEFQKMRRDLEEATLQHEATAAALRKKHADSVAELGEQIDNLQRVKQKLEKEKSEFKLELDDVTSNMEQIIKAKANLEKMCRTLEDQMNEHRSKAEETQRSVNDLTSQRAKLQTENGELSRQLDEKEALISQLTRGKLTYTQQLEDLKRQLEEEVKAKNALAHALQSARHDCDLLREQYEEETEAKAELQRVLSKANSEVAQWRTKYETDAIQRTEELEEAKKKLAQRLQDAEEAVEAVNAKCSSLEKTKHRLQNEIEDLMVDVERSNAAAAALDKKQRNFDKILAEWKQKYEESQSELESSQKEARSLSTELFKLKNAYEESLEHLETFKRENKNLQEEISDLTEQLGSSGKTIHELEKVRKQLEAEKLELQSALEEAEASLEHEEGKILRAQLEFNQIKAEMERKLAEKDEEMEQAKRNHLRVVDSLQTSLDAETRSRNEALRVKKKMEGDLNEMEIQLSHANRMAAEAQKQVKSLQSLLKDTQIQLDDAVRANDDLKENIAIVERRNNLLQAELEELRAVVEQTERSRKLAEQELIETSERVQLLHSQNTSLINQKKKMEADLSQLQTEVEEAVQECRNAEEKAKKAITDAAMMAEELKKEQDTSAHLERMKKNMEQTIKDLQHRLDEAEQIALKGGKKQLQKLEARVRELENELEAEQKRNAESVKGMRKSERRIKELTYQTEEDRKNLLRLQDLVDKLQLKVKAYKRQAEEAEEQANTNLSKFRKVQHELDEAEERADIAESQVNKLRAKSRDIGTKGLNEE
# methodNotes: Myofibril ATPase assay (PK/LDH NADH-coupled), ventricle myofibrils
# Assay type: biochemical
# reportedConditions: Table 7
Form field: Porcine Ventricle IC25 (one value per entry).
State just the number; it will be interpreted in µM.

Here are 6 compounds together with their reported answers.
[[record]]
compound = "O=C(CN1C(=O)Nc2cccnc2C12CC2)N[C@H](CO)c1ccc(F)cc1F [Compound N27]"
assayvalue = 100

[[record]]
compound = "CC(C)C[C@H](C(=O)N[C@@H](C)c1ccc(F)cc1F)N1Cc2nc(F)ccc2NC1=O"
assayvalue = 100

[[record]]
compound = "C[C@H](NC(=O)[C@H](Cc1ccccc1)N1Cc2nc(F)ccc2NC1=O)c1ccc(F)cc1F"
assayvalue = 100

[[record]]
compound = "C[C@H](NC(=O)CN1C(=O)Nc2ccncc2[C@@H]1C)c1ccc(F)cc1F"
assayvalue = 100

[[record]]
compound = "C[C@H](NC(=O)CN1Cc2nc(OC(F)(F)F)ccc2NC1=O)c1ccc(F)cc1F"
assayvalue = 100

[[record]]
compound = "C[C@@H](NC(=O)CN1Cc2cc(F)cnc2NC1=O)c1ncc(F)cc1F"
assayvalue = 100


Consider the compound `C[C@H](NC(=O)CN1Cc2nc(Br)ccc2NC1=O)c1ccc(F)cc1F` and give its recorded Porcine Ventricle IC25.
9.96

Consider the compound `N#Cc1ccc([C@H](CO)NC(=O)CN2Cc3c(ccnc3C#N)NC2=O)c(F)c1` and give its recorded Porcine Ventricle IC25.
100

Consider the compound `O=C(CN1C(=O)Nc2cccnc2C12CC2)N[C@@H]1COc2cc(F)cc(F)c21` and give its recorded Porcine Ventricle IC25.
0.2832

Consider the compound `C[C@@H](NC(=O)CN1Cc2nc(F)ccc2NC1=O)c1ncc(F)cc1F` and give its recorded Porcine Ventricle IC25.
4.155

Consider the compound `C[C@@H](NC(=O)CN1C(=O)Nc2cccnc2C12COC2)c1ncc(F)cc1F` and give its recorded Porcine Ventricle IC25.
100

Consider the compound `C[C@H](NC(=O)[C@H](C)N1Cc2c(ccnc2Br)NC1=O)c1ccc(F)cc1F` and give its recorded Porcine Ventricle IC25.
0.4952

Consider the compound `C[C@H](NC(=O)CN1Cc2c(ccnc2OC2COC2)NC1=O)c1ccc(F)cc1F` and give its recorded Porcine Ventricle IC25.
100

Consider the compound O=C(CN1C(=O)Nc2cccnc2C12CC2)N[C@@H](CO)c1ccc(F)cc1F [Compound N44] and give its recorded Porcine Ventricle IC25.
18.96
